Target: T1, murine CD22 protein (ACROBiosystems, SI2-M52Ha) (murine, UniProt P35329 22-708)
T1 construct: extracellular domain; also called murine CD22-ECD; murine CD22-ECD-His
T1 sequence (looked up): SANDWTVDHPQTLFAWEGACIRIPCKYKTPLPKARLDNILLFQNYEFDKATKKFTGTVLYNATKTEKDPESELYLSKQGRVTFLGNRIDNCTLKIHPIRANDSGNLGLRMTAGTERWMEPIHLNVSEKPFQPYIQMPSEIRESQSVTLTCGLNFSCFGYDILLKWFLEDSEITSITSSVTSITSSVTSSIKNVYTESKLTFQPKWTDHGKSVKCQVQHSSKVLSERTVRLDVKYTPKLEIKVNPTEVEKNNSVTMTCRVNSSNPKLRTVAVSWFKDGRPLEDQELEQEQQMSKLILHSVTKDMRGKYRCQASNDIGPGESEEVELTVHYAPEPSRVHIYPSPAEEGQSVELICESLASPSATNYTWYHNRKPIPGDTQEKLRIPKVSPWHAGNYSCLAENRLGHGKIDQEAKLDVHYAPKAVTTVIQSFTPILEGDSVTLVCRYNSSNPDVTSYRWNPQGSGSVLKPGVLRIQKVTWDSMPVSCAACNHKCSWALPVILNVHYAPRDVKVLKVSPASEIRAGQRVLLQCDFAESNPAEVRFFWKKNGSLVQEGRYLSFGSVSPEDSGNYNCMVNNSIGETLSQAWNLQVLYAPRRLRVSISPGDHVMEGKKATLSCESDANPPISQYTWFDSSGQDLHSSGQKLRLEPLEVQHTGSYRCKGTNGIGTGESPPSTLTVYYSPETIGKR
Test: ELISA, coated murine CD22, 10 nM Ab
assay.endpoint: OD450

>  <binder>
F1.62.10 human-murine chimeric antibody (antibody, human IgG1, kappa, V domains shown, Chimeric, human IgG1 / kappa) VH: QVQLQQSGPELVKPGASVKISCKASGYEFSSIWMNWVKQRPGEGLEWIGRIFPGDGEINYNEKFKGKATLTADRSSTTAYMQLSSLTSEDSAVYFCAGWRIYYGTYGAMDYWGQGTSVTVSS VL: DIQMTQITSSLSASLGDRVTISCRASQDIGNYLNWYQQKPDGTVKLLIYYTSRLHSGVPSRFSGSGSRTDYSLTISNLQQEDIATYFCQQGNTLPWTFGGGTKLEIKR

>  <assay.endpoint>
OD450

>  <experimental.value>
0.06 OD450

$$$$
>  <binder>
F2.70.2 human-murine chimeric antibody (antibody, human IgG1, lambda, V domains shown, Chimeric, human IgG1 / lambda) VH: EVQLVESGGGLVKPGGSLKLSCAASGFTFSDYGMNWFRQAPEKGLEWVAYISRGSHTIYYADTVKGRFTISRDNAKNTLFLQMTSLRSNDTAMYYCVRMAGYYAMDYWGQGTSVTVSS VL: QLVLTQSSSASFSLGASAKLTCTLSSQHSSYIIEWYQQQPLKPPKYVMELKKDGSHSTGDGIPDRFSGSSSGADRYLSISNIQPEDEAIYICGVGDTIKEQFVYVFGGGTKVTVLG

>  <assay.endpoint>
OD450

>  <experimental.value>
0.07 OD450

$$$$
